Hello, the source for this data is patent US11168095B2, in case you need it.

// reported pIC50 for each item listed
- Test System: UniProt:Q99683
- Run Description: ASK1 TR-FRET assay
- Type: biochemical
- Test Context: 5 nM GST-hASK1, 100 μM ATP, 2 μM STK Substrate 3
pIC50: −log10 of the molar value.

Examples from the recorded data:
{"columns": ["Item Smiles", "Result Value"],
 "data": [
  ["O=C1Nc2cccc(n2)-c2nncn2CCCCOc2ccc(C3=CCOCC3)cc21", "> 7.00"],
  ["CCN1CCN(c2ccc3c(c2)C(=O)Nc2cccc(n2)-c2nncn2CCCCO3)CC1", "> 7.00"],
  ["O=C1Nc2cccc(n2)-c2nncn2C/C=C/COc2cc(F)ccc21", "6.00 to 7.00"],
  ["O=C1Nc2cccc(n2)-c2nncn2CCCCCOc2ccc(N3CC4(COC4)C3)cc21", "> 7.00"],
  ["Cc1ccc2c(c1)C(=O)Nc1cccc(n1)-c1nncn1CCCCO2", "> 7.00"]
]}

Sure, the documented pIC50 for `O=C1Nc2cccc(n2)-c2nncn2CCCCOc2ccc(N3CC4CCC(C3)O4)cc21` is > 7.00

// sample `O=C1Nc2cccc(n2)-c2nncn2CCCOc2ccc(N3CCOCC3)cc21` , its pIC50 was 6.00 to 7.00

Recorded pIC50 (molecule `O=C1Nc2cccc(n2)-c2nncn2CCCCOc2ccc(N3C4COCC3C4)cc21` ): > 7.00

`O=C1Nc2cccc(n2)-c2nncn2C/C=C/COc2c(Br)cccc21` yielded pIC50 of 6.00 to 7.00

pIC50 in this record for `O=C1Nc2cccc(n2)-c2nncn2CCCCOc2ccc(N3CCC(F)(F)C3)cc21` : > 7.00

Record `O=C1Nc2cccc(n2)-c2nncn2CCCCOc2ccc(N3CC4CC(C3)O4)cc21` . Reported pIC50: > 7.00

# pIC50 (molecule: `O=C1Nc2cccc(n2)-c2nncn2CCCCOc2ccc(C(=O)N3CCCC3)cc21` ) is 6.00 to 7.00

For reference, reported pIC50 for `C[C@H]1CCCOc2ccc(-c3cnn(C)c3)cc2C(=O)Nc2cccc(n2)-c2nncn21` stands at > 7.00

----------
Parameter: pIC50. Scope: all listed entries.
- Test System: GST-hASK1 (Homo sapiens (Human), UniProt Q99683)
- Sequence (Q99683 649-946): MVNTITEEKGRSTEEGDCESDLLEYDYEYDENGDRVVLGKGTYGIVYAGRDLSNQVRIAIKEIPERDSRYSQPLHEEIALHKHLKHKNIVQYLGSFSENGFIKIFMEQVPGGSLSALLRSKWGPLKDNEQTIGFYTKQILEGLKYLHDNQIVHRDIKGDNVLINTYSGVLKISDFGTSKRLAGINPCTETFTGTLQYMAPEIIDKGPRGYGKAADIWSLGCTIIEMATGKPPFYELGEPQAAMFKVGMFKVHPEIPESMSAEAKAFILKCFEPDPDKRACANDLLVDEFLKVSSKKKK
- Run Description: ASK1 TR-FRET assay
- Type: biochemical
- Test Context: 5 nM GST-hASK1, 100 μM ATP, 2 μM STK Substrate 3
pIC50: −log10 of the molar value.

{"columns": ["Compound", "Result Value"],
 "data": [
  ["O=C1Nc2cccc(n2)-c2nncn2C/C=C/COc2c1cccc2C(F)(F)F [Example 166]", "5.00 to 6.00"],
  ["O=C1Nc2cccc(n2)-c2nncn2C/C=C/COc2ccc(F)cc21 [Example 158]", "6.00 to 7.00"],
  ["O=C1Nc2cccc(n2)-c2nncn2CCCCOc2ccc(-n3cccn3)cc21 [Example 44]", "> 7.00"],
  ["O=C1Nc2cccc(n2)-c2nncn2CCCCOc2ccc(-c3ccncc3)cc21 [Example 27]", "> 7.00"],
  ["O=C1Nc2cccc(n2)-c2nncn2CCCCOc2cc(C(F)(F)F)ccc21 [Example 153]", "> 7.00"]
]}

Memo: O=C1Nc2cccc(n2)-c2nncn2C/C=C\COc2cc(C(F)(F)F)ccc21 [Example 155] , reported pIC50: 6.00 to 7.00

GET /value?item= Cc1ncn(-c2ccc3c(c2)C(=O)Nc2cccc(n2)-c2nncn2CCCCO3)c1C [Example 42] &field=pIC50 returns > 7.00

Entry under test: O=C1Nc2cccc(n2)-c2nncn2CCCCOc2ccc(N3CCC(F)(F)CC3)cc21 [Example 12] . Its pIC50 was > 7.00

Record summary for O=C1Nc2cccc(n2)-c2nncn2CCCCOc2ccc(N3C4CCC3COC4)cc21 [Example 5] : reported pIC50 = > 7.00

pIC50 recorded for this compound, O=C1Nc2cccc(n2)-c2nncn2C/C=C/COc2cc(C(F)(F)F)ccc21 [Example 154] , is 6.00 to 7.00

Record N#Cc1ccc2c(c1)C(=O)Nc1cccc(n1)-c1nncn1CCCCO2 [Example 20] , field pIC50: > 7.00

Measured pIC50, O=C1Nc2cccc(n2)-c2nncn2C/C=C\COc2ccc(F)cc21 [Example 159] : > 7.00
